System: 8XTBD luciferase reporter (YAP) in HEK293T cells
experimental protocol: YAP Reporter Assay
Assay type: cell-based
measurement parameters: Homo sapiens, HEK-293T; HEK293T cells stably transfected with 8XTBD luciferase reporter and pRLTK; 24-hr incubation; top concentration 3 μM; read-out: Firefly Luciferase IC50
measurement name: IC50

What does the record list as IC50 for O=C(NO)c1nnc(-c2ccccc2Nc2ccc(C(F)(F)F)cc2)o1 ? < 100 nM

One more molecule: C=CC(=O)NCc1nnc(-c2ccccc2Nc2ccc(C(F)(F)F)cc2)o1 < 100 nM

One more molecule: O=C(NCCO)c1nnc(-c2ccccc2Nc2ccc(C(F)(F)F)cc2)o1 < 100 nM

One more molecule: CCOC(=O)CN(C)c1nnc(-c2ccccc2Nc2ccc(C(F)(F)F)cc2)o1 100 to 1000 nM

One more molecule: CC(O)c1nnc(-c2ccccc2Nc2ccc(C(F)(F)F)cc2)o1 (centres unmarked) < 100 nM

One more molecule: N#CCCc1nnc(-c2ccccc2Nc2ccc(C(F)(F)F)cc2)o1 100 to 1000 nM

One more molecule: CC(c1nnc(-c2ccccc2Nc2ccc(C(F)(F)F)cc2)o1)N(C)C#N (centres unmarked) < 100 nM

One more molecule: CN(C)c1nnc(-c2ccccc2Nc2ccc(C(F)(F)F)cc2)o1 1000 to 5000 nM

One more molecule: Cc1ccc(S(=O)(=O)N2C(=O)OCC2c2nnc(-c3ccccc3Nc3ccc(C(F)(F)F)cc3)o2)cc1 (centres unmarked) 100 to 1000 nM

One more molecule: NCCc1nnc(-c2ccccc2Nc2ccc(C(F)(F)F)cc2)o1 1000 to 5000 nM

One more molecule: N#CN1CCCC1c1nnc(-c2ccccc2Nc2ccc(C(F)(F)F)cc2)o1 (centres unmarked) < 100 nM

One more molecule: [N-]=[N+]=NCc1nnc(-c2ccccc2Nc2ccc(C(F)(F)F)cc2)o1 100 to 1000 nM

One more molecule: Cc1ccc(S(=O)(=O)OC2(c3nnc(-c4ccccc4Nc4ccc(C(F)(F)F)cc4)o3)CC2)cc1 100 to 1000 nM

One more molecule: CC(=O)OC(CO)c1nnc(-c2ccccc2Nc2ccc(C(F)(F)F)cc2)o1 (centres unmarked) < 100 nM

One more molecule: CC(C)(CO)c1nnc(-c2ccccc2Nc2ccc(C(F)(F)F)cc2)o1 < 100 nM

One more molecule: NC(=O)CNc1nnc(-c2ccccc2Nc2ccc(C(F)(F)F)cc2)o1 100 to 1000 nM

One more molecule: CN(C#N)CCCc1nnc(-c2ccccc2Nc2ccc(C(F)(F)F)cc2)o1 < 100 nM

One more molecule: OCC(O)c1nnc(-c2ccccc2Nc2ccc(C(F)(F)F)cc2)o1 (centres unmarked) < 100 nM

One more molecule: CC1(c2nnc(-c3ccccc3Nc3ccc(C(F)(F)F)cc3)o2)CCCO1 (centres unmarked) < 100 nM

One more molecule: CCC(C)(O)c1nnc(-c2ccccc2Nc2ccc(C(F)(F)F)cc2)o1 (centres unmarked) < 100 nM

One more molecule: COC(=O)c1nnc(-c2ccccc2Nc2ccc(C(F)(F)F)cc2)o1 100 to 1000 nM

One more molecule: COC1(c2nnc(-c3ccccc3Nc3ccc(C(F)(F)F)cc3)o2)CC1 < 100 nM

One more molecule: CCNCCc1nnc(-c2ccccc2Nc2ccc(C(F)(F)F)cc2)o1 1000 to 5000 nM

One more molecule: COCCNC(=O)c1nnc(-c2ccccc2Nc2ccc(C(F)(F)F)cc2)o1 < 100 nM

One more molecule: FC(F)(F)c1ccc(Nc2ccccc2-c2nnc(C3CCNC3)o2)cc1 (centres unmarked) 100 to 1000 nM

One more molecule: OC(CF)c1nnc(-c2ccccc2Nc2ccc(C(F)(F)F)cc2)o1 (centres unmarked) < 100 nM

One more molecule: C#CC(C)Oc1nnc(-c2ccccc2Nc2ccc(C(F)(F)F)cc2)o1 (centres unmarked) < 100 nM

One more molecule: OC1(c2nnc(-c3ccccc3Nc3ccc(C(F)(F)F)cc3)o2)CCOC1 (centres unmarked) < 100 nM

One more molecule: C/C=C/c1nnc(-c2ccccc2Nc2ccc(C(F)(F)F)cc2)o1 100 to 1000 nM

One more molecule: C#CCNC(=O)c1nnc(-c2ccccc2Nc2ccc(C(F)(F)F)cc2)o1 < 100 nM

One more molecule: NC1(c2nnc(-c3ccccc3Nc3ccc(C(F)(F)F)cc3)o2)CC1 100 to 1000 nM

One more molecule: FC(F)(F)c1ccc(Nc2ccccc2-c2nnc(OC/C=C/Br)o2)cc1 100 to 1000 nM

One more molecule: CC1(c2nnc(-c3ccccc3Nc3ccc(C(F)(F)F)cc3)o2)CO1 (centres unmarked) < 100 nM

One more molecule: COc1nnc(-c2ccccc2Nc2ccc(C(F)(F)F)cc2)o1 < 100 nM

One more molecule: CN(C#N)C(C)(C)Cc1nnc(-c2ccccc2Nc2ccc(C(F)(F)F)cc2)o1 1000 to 5000 nM
